All values here come from patent US10213415B2.

- Target Or System: delta opioid receptor (Rattus norvegicus, UniProt P33533)
- Construct: from tissue; host or cells: forebrain of male Wistar rats
- Sequence (P33533 whole entry): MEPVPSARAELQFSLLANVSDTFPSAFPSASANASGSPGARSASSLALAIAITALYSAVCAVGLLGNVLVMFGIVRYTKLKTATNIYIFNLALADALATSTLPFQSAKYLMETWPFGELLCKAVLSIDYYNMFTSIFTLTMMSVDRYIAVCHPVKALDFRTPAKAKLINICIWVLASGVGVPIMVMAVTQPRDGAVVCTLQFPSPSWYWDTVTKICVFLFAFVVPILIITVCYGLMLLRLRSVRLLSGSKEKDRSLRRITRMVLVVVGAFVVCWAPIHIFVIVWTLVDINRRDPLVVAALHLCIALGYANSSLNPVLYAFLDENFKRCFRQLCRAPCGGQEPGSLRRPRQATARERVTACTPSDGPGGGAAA
- Assay Summary: Rat Brain Delta Opioid Receptor Binding Assay ([3H]DPDPE)
- Reported Conditions: rat forebrain membranes, margin of error 10-20%, read-out: r Ki δ
pKi: −log10 of the molar value.
# maps each entry to its pKi
Endpoint Name: pKi

CCNC(=O)c1cc(C)c(C[C@H](N)C(=O)N(C)[C@H](C)c2nc(-c3ccccc3)c[nH]2)c(C)c1	5.73
Cc1cc(C(=O)N2CCOCC2)cc(C)c1C[C@H](N)C(=O)N(C)[C@H](C)c1nc(-c2ccccc2)c[nH]1	5.28
CN(Cc1nc(-c2ccccc2)c[nH]1)C(=O)[C@@H](N)Cc1ccc(O)cc1	5.29
COc1ccc(CN(C(=O)[C@@H](N)Cc2c(C)cc(C(N)=O)cc2C)[C@@H](C)c2nc(-c3ccccc3)c[nH]2)cc1C(=O)N1CCOCC1	8.66
